- target under test: full-length, recombinant mouse prion protein (rmPrP23-231) (Mus musculus, UniProt P04925)
- Sequence (P04925 23-231): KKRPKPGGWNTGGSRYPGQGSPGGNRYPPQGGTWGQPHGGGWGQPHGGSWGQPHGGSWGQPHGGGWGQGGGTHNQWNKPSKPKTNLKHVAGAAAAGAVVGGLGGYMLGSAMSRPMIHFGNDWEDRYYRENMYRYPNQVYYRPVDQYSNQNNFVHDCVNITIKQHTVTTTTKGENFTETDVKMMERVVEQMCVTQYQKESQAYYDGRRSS
- assay name: FRET or BRET
- setup conditions: both partners purified
We begin with a simple list: items and their reported Kd.
Reply numerically in nM, unit not repeated.

Solved cases (5 shown):
POM1 scFv pomolog lcW94A (scFv, V domains shown) VH: QVQLQQSGTELVMPGASVKMSCKASGYTFTDYWMHWVKQRPGQGLEWIGSIDPSDSYTSHNEKFKGKATLTVDESSSTAYMQLSSLTSEDSAVYFCSRSGYGYYAMEYWGQGTSVTVSS VL: DIVLTQSPAILSVSPGERVSFSCRASQNIGTSIHWYQQRTNESPRLIIKYASESISGIPSRFSGSGSGTDFTLSINSVESEDIADYYCQQSNTAPYTFGGGTKLELK ... 73.1
POM1 scFv pomolog lcY50A (scFv, V domains shown) VH: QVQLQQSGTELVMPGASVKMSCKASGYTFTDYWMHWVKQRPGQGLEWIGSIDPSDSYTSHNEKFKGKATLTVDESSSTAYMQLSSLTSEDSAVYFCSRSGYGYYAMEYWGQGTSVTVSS VL: DIVLTQSPAILSVSPGERVSFSCRASQNIGTSIHWYQQRTNESPRLIIKAASESISGIPSRFSGSGSGTDFTLSINSVESEDIADYYCQQSNTWPYTFGGGTKLELK ... 63.4
POM1 scFv pomolog hcD55A (scFv, V domains shown) VH: QVQLQQSGTELVMPGASVKMSCKASGYTFTDYWMHWVKQRPGQGLEWIGSIDPSASYTSHNEKFKGKATLTVDESSSTAYMQLSSLTSEDSAVYFCSRSGYGYYAMEYWGQGTSVTVSS VL: DIVLTQSPAILSVSPGERVSFSCRASQNIGTSIHWYQQRTNESPRLIIKYASESISGIPSRFSGSGSGTDFTLSINSVESEDIADYYCQQSNTWPYTFGGGTKLELK ... 110
POM1 scFv pomolog lcY96A (scFv, V domains shown) VH: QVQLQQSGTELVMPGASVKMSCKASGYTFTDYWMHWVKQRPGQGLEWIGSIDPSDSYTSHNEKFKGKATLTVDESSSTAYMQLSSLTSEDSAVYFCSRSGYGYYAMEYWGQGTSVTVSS VL: DIVLTQSPAILSVSPGERVSFSCRASQNIGTSIHWYQQRTNESPRLIIKYASESISGIPSRFSGSGSGTDFTLSINSVESEDIADYYCQQSNTWPATFGGGTKLELK ... 138
POM1 scFv pomolog hcY104A (scFv, V domains shown) VH: QVQLQQSGTELVMPGASVKMSCKASGYTFTDYWMHWVKQRPGQGLEWIGSIDPSDSYTSHNEKFKGKATLTVDESSSTAYMQLSSLTSEDSAVYFCSRSGYGYAAMEYWGQGTSVTVSS VL: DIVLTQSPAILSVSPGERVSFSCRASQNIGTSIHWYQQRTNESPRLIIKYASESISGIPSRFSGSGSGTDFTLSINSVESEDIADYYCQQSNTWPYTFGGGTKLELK ... 26

IN: Look at this binder and give its reported Kd. POM1 scFv pomolog hcY57A (scFv, V domains shown) VH: QVQLQQSGTELVMPGASVKMSCKASGYTFTDYWMHWVKQRPGQGLEWIGSIDPSDSATSHNEKFKGKATLTVDESSSTAYMQLSSLTSEDSAVYFCSRSGYGYYAMEYWGQGTSVTVSS VL: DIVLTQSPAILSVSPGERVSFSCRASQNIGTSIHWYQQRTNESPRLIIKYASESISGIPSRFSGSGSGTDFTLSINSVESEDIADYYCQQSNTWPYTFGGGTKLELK
OUT: 225

IN: Look at this binder and give its reported Kd. POM1 scFv pomolog hcD52A (scFv, V domains shown) VH: QVQLQQSGTELVMPGASVKMSCKASGYTFTDYWMHWVKQRPGQGLEWIGSIAPSDSYTSHNEKFKGKATLTVDESSSTAYMQLSSLTSEDSAVYFCSRSGYGYYAMEYWGQGTSVTVSS VL: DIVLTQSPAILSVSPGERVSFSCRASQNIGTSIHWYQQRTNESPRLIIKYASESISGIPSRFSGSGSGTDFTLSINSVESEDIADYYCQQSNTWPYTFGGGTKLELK
OUT: 14.2

Data credit: paper PMC9371974
